tgt: human 5-HT6 receptors (Homo sapiens, UniProt P50406)
Construct: purchased Perkin Elmer RBHS6M; host or cells: HEK-293 cells, transient expression (membranes)
Sequence (P50406 whole entry): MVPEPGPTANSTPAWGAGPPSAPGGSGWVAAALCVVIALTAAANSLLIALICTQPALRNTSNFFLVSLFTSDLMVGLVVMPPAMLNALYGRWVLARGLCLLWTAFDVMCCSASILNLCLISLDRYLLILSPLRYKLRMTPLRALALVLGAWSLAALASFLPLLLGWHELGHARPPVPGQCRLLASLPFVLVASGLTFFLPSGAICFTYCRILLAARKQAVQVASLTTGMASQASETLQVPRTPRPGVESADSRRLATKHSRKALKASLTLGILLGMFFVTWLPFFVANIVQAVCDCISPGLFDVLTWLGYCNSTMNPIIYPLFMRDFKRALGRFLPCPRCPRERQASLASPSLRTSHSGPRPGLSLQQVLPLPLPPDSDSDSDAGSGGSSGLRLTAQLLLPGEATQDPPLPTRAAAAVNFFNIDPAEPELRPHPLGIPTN
assayDetails: [3H]-LSD competition binding on membranes of HEK-293 cells expressing human 5-HT6 receptors
condition: read-out: (h)5-HT6R % inhibition at 10^−6M, 10^−6M; 2.5 nM [3H]-LSD
measuredMetric: inhibition (%)
Number in %, nothing else.

inhibition measured on COc1cc(N)c(Cl)cc1C(=O)CCC1CCN(Cc2cc([N+](=O)[O-])ccc2F)CC1 = 18

inhibition measured on COc1cc(N)c(Cl)cc1C(=O)CCC1CCN(Cc2ccc(O)cc2)CC1 = 24

inhibition measured on COc1cc(N)c(Cl)cc1C(=O)CCC1CCN(Cc2ccccc2OCc2ccccc2)CC1 = 18

inhibition measured on COc1cc(N)c(Cl)cc1C(=O)CCC1CCN(Cc2cccc([N+](=O)[O-])c2)CC1 = 51

inhibition measured on COc1cc(N)c(Cl)cc1C(=O)CCC1CCN(Cc2ccc(F)cc2)CC1 = 58

inhibition measured on COc1cc(N)c(Cl)cc1C(=O)CCC1CCN(Cc2ccc(C)cc2)CC1 = 21

----------
Can you tell me inhibition for the items I'm about to list?
tgt: human 5-HT6 receptors (Homo sapiens, UniProt P50406)
Construct: purchased Perkin Elmer RBHS6M; host or cells: HEK-293 cells, transient expression (membranes)
assayDetails: [3H]-LSD competition binding on membranes of HEK-293 cells expressing human 5-HT6 receptors
condition: read-out: (h)5-HT6R % inhibition at 10^−6M, 10^−6M; 2.5 nM [3H]-LSD
Number in %, nothing else.

inhibition measured on COc1cc(N)c(Cl)cc1C(=O)CCC1CCN(Cc2ccccc2I)CC1 [5e] = 81

inhibition measured on COc1cc(N)c(Cl)cc1C(=O)CCC1CCN(Cc2cccc(F)c2)CC1 [5j] = 59

inhibition measured on COc1cc(N)c(Cl)cc1C(=O)CCC1CCN(Cc2cc(NC(C)=O)ccc2Br)CC1 [5r] = 35

inhibition measured on COc1cc(N)c(Cl)cc1C(=O)CCC1CCN(Cc2ccccc2)CC1 [5a] = 29

inhibition measured on COc1cc(N)c(Cl)cc1C(=O)CCC1CCN(Cc2ccccc2Br)CC1 [5c] = 65

----------
tgt: AChE from human erythrocytes (Homo sapiens)
Construct: AChE from human erythrocytes; purchased Sigma Aldrich; host or cells: human erythrocytes (natural source)
Sequence (P22303 other isoform, or with tags, fused parts or gaps): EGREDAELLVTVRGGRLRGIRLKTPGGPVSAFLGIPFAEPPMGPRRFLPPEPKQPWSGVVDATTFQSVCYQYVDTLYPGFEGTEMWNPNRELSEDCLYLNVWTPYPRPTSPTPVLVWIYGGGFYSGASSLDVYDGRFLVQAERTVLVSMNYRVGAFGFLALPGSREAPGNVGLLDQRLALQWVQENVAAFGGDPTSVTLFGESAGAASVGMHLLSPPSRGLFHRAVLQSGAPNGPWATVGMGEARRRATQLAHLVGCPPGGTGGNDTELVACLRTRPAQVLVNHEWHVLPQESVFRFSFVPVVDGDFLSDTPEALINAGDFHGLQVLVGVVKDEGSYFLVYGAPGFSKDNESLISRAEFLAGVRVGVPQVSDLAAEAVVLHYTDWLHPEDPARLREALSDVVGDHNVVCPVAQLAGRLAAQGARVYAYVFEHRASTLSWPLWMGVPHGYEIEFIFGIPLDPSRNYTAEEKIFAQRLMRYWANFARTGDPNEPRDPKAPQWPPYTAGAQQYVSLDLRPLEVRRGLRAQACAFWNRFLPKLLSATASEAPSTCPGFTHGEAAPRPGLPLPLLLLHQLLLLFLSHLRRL
assayDetails: biochemical
condition: read-out: (h)AChE % inhibition at 10^−6M
Description: Acetylthiocholine iodide and 5,5-dithiobis-(2-nitrobenzoic) acid (DTNB) were purchased from Sigma Aldrich. […] The reaction slopes were compared and the percent inhibition due to the presence of test compounds was calculated by the following expression: 100 − (vi/v0 × 100) where vi is the rate calculated in the presence of inhibitor and v0 is the enzyme activity.
Lab note: compare inhibition at 1 µM against 80%. Equal or greater, write 1 (yes). Smaller, write 0 (no).

Please tell me: is the compound COc1cc(N)c(Cl)cc1C(=O)CCC1CCN(Cc2ccccc2C)CC1 at or over 80% in terms of inhibition at 1 µM?
1 (yes)

Please tell me: is the compound COc1cc(N)c(Cl)cc1C(=O)CCC1CCN(Cc2ccc(C)cc2)CC1 at or over 80% in terms of inhibition at 1 µM?
1 (yes)

Please tell me: is the compound COc1cc(N)c(Cl)cc1C(=O)CCC1CCN(Cc2ccc(F)cc2)CC1 at or over 80% in terms of inhibition at 1 µM?
1 (yes)

Please tell me: is the compound COc1cc(N)c(Cl)cc1C(=O)CCC1CCN(Cc2cc([N+](=O)[O-])ccc2F)CC1 at or over 80% in terms of inhibition at 1 µM?
0 (no)

Please tell me: is the compound COc1cc(N)c(Cl)cc1C(=O)CCC1CCN(Cc2ccc(O)cc2)CC1 at or over 80% in terms of inhibition at 1 µM?
1 (yes)

Please tell me: is the compound COc1cc(N)c(Cl)cc1C(=O)CCC1CCN(Cc2cccc(C)c2)CC1 at or over 80% in terms of inhibition at 1 µM?
1 (yes)

Please tell me: is the compound COc1cc(N)c(Cl)cc1C(=O)CCC1CCN(Cc2ccccc2OCc2ccccc2)CC1 at or over 80% in terms of inhibition at 1 µM?
0 (no)

Please tell me: is the compound COc1cc(N)c(Cl)cc1C(=O)CCC1CCN(Cc2cc(NC(C)=O)ccc2Br)CC1 at or over 80% in terms of inhibition at 1 µM?
0 (no)

Please tell me: is the compound COc1cc(N)c(Cl)cc1C(=O)CCC1CCN(Cc2ccccc2F)CC1 at or over 80% in terms of inhibition at 1 µM?
1 (yes)

Please tell me: is the compound COc1cc(N)c(Cl)cc1C(=O)CCC1CCN(Cc2cccc(N)c2)CC1 at or over 80% in terms of inhibition at 1 µM?
1 (yes)
